Values compiled from patent US20240139185A1.

Reported pEC50 values for a set of molecules
Target: BRAF-GTP-KRAS-G12C complex (Homo sapiens, UniProt P01116+P62937, G12C)
Construct: 50 nM of His6-KRas G12C-GTP (1-169); 500 nM of tagless CypA (1-165)
Test: KRAS-BRAF complex disruption through competition with CYPA-compound by TR-FRET
Conditions: biochemical BRAF-KRAS G12C-GTP disruption assay EC50, with CYPA
pEC50: −log10 of the molar value.

Guide cases for pEC50, answers given:
[[record]]
molecule = "Cc1cc2ccc3cc2n1CC(C)(C)COC(=O)[C@@H]1CCCN(N1)C(=O)[C@@H](NC(=O)[C@H](C(C)C)N(C)C(=O)C1CN(C(=O)CCl)C1)Cc1cc(O)cc-3c1 [Compound 103]"
measured_endpoint = "pEC50"
reported_measurement = "≥ 6.30"

[[record]]
molecule = "CC(C)[C@@H](C(=O)N[C@H]1Cc2cc(O)cc(c2)-c2ccc3nc(C4CCOCC4)n(c3c2)CCCOC(=O)[C@@H]2CCCN(N2)C1=O)N(C)C(=O)C1CN(C(=O)CCl)C1 [Compound 170]"
measured_endpoint = "pEC50"
reported_measurement = "5.30 to 6.30"


--- query ---
Which pEC50 is listed for CC(C)[C@@H](C(=O)N[C@H]1Cc2cc(O)cc(c2)-c2ccc3c(C4CC4)cn(c3c2)C[C@H](C)COC(=O)[C@@H]2CCCN(N2)C1=O)N(C)C(=O)C1CN(C(=O)CCl)C1 [Compound 117] ?
≥ 6.30

* * *

Target: cyclophilin A (CYPA) (Homo sapiens, UniProt P62937)
Test: CYPA-compound binary complex formation by SPR
Settings: read-out: CYPA Binding Affinity
Kd values, listed per item

Solved entries:
[[record]]
compound = "CC(C)[C@@H](C(=O)N[C@H]1Cc2cc(O)cc(c2)-c2ccc3nc(-c4cccnc4)n(c3c2)CCCOC(=O)[C@@H]2CCCN(N2)C1=O)N(C)C(=O)C1CN(C(=O)CCl)C1"
target_desc = "cyclophilin A (CYPA) (Homo sapiens, UniProt P62937)"
measured_endpoint = "Kd"
reported_measurement = "≤ 5 µM"

[[record]]
compound = "C=CC(=O)N1CCC(C(=O)N(C)C(C(=O)NC2Cc3cc(O)cc(c3)-c3ccc4c(-c5c(COC)noc5C)cn(c4c3)CC(C)(C)COC(=O)C3CCCN(N3)C2=O)C(C)C)C1 (centres unmarked)"
target_desc = "cyclophilin A (CYPA) (Homo sapiens, UniProt P62937)"
measured_endpoint = "Kd"
reported_measurement = "5 to 15 µM"

[[record]]
compound = "COc1ccccc1-c1cn2c3cc(ccc13)-c1cc(O)cc(c1)CC(NC(=O)C(C(C)C)N(C)C(=O)C1CN(C(=O)CCl)C1)C(=O)N1CCCC(N1)C(=O)OCC(C)C2 (centres unmarked)"
target_desc = "cyclophilin A (CYPA) (Homo sapiens, UniProt P62937)"
measured_endpoint = "Kd"
reported_measurement = "5 to 15 µM"

[[record]]
compound = "C=CC(=O)N1CC(C(=O)N(C)[C@H](C(=O)N[C@H]2Cc3cc(O)cc(c3)-c3ccc4nc(C)n(c4c3)CC(C)(C)COC(=O)[C@@H]3CCCN(N3)C2=O)C(C)C)C1"
target_desc = "cyclophilin A (CYPA) (Homo sapiens, UniProt P62937)"
measured_endpoint = "Kd"
reported_measurement = "5 to 15 µM"


In the following, a different compound is considered.
Item: `CC(C)[C@@H](C(=O)N[C@H]1Cc2cc(O)cc(c2)-c2ccc3c(C(F)F)nn(c3c2)C[C@H](C)COC(=O)[C@@H]2CCCN(N2)C1=O)N(C)C(=O)C1CN(C(=O)CCl)C1` Test system: cyclophilin A (CYPA) (Homo sapiens, UniProt P62937) Read-out: Kd Value: ?
≤ 5 µM
